Quick reference: Minimum inhibitory concentration of the listed items.
# Tested on: clinical strains of S. pneumoniae
# test_summary: MIC, microdilution, clinical strains
# Assay type: cell-based
# protocol_conditions: Streptococcus pneumoniae strain 4, Muller Hinton broth-cation adjusted, 0.02% BSA, 0.2% acetic acid
Where a SMILES comes first, the peptide text is derived from it. [ ]: non-standard residue; d: D form.
Could you respond with only the numeric value?

These solved cases illustrate the format of a correct answer.
molecule	Minimum inhibitory concentration
CC(C)C[C@@H](NC(=O)[C@H](N)CCCNC(=N)N)C(=O)N[C@H](CCCCN)C(=O)N[C@H](Cc1c[nH]c2ccccc12)C(=O)N[C@H](Cc1ccccc1)C(=O)N[C@H](Cc1c[nH]c2ccccc12)C(=O)N[C@H](CC(C)C)C(=O)N[C@H](Cc1ccccc1)C(=O)N[C@H](CCCNC(=N)N)C(=O)N[C@H](CCCCN)C(=O)N[C@H](CCCNC(=N)N)C(=O)O [Chain307D] (H-[dR][dL][dK][dW][dF][dW][dL][dF][dR][dK][dR]-OH)	2
CC(C)C[C@@H](NC(=O)[C@@H](CCCCN)NC(=O)[C@@H](CCCCN)NC(=O)[C@@H](Cc1ccccc1)NC(=O)[C@@H](CC(C)C)NC(=O)[C@@H](Cc1c[nH]c2ccccc12)NC(=O)[C@@H](CCCNC(=N)N)NC(=O)[C@@H](Cc1c[nH]c2ccccc12)NC(=O)[C@@H](CCCCN)NC(=O)[C@@H](CCCNC(=N)N)NC(=O)[C@H](N)CCCCN)C(=O)O [Chain310D] (H-[dK][dR][dK][dW][dR][dW][dL][dF][dK][dK][dL]-OH)	128
CC(C)C[C@@H](NC(=O)[C@H](N)CCCNC(=N)N)C(=O)N[C@H](CCCCN)C(=O)N[C@H](CCCNC(=N)N)C(=O)N[C@H](Cc1c[nH]c2ccccc12)C(=O)N[C@H](CCCNC(=N)N)C(=O)N[C@H](CC(C)C)C(=O)N[C@H](Cc1ccccc1)C(=O)N[C@H](CCCNC(=N)N)C(=O)N[C@H](CCCCN)C(=O)N[C@H](CCCNC(=N)N)C(=O)O [Chain306D] (H-[dR][dL][dK][dR][dW][dR][dL][dF][dR][dK][dR]-OH)	128

Now look at this entry.
Problem: Provide Minimum inhibitory concentration value for the following molecule: CC(C)C[C@@H](NC(=O)[C@H](N)CCCCN)C(=O)N[C@H](CCCCN)C(=O)N[C@H](Cc1c[nH]c2ccccc12)C(=O)N[C@H](Cc1ccccc1)C(=O)N[C@H](Cc1c[nH]c2ccccc12)C(=O)N[C@H](CC(C)C)C(=O)N[C@H](Cc1ccccc1)C(=O)N[C@H](CCCCN)C(=O)N[C@H](CCCCN)C(=O)N[C@H](CCCNC(=N)N)C(=O)O [Chain311D] (H-[dK][dL][dK][dW][dF][dW][dL][dF][dK][dK][dR]-OH)
Result: 4

###

Below is a list of entries, each paired with its recorded Minimum inhibitory concentration value.
# System: clinical strains of Serratia marcescens
# test_summary: MIC, microdilution, clinical strains
# Assay type: cell-based
# protocol_conditions: Serratia marcescens strain 1, Muller Hinton broth-cation adjusted, 0.02% BSA, 0.2% acetic acid
Where a SMILES comes first, the peptide text is derived from it. [ ]: non-standard residue; d: D form.

Before answering, review these 4 worked examples.
compound	Minimum inhibitory concentration
CC(C)C[C@@H](NC(=O)[C@@H](Cc1c[nH]c2ccccc12)NC(=O)[C@@H](Cc1ccccc1)NC(=O)[C@@H](Cc1c[nH]c2ccccc12)NC(=O)[C@@H](CCCCN)NC(=O)[C@@H](CCCNC(=N)N)NC(=O)[C@H](N)Cc1c[nH]c2ccccc12)C(=O)N[C@H](Cc1ccccc1)C(=O)N[C@H](CCCCN)C(=O)N[C@H](CCCCN)C(=O)N[C@H](CCCNC(=N)N)C(=O)O [Chain309D] (H-[dW][dR][dK][dW][dF][dW][dL][dF][dK][dK][dR]-OH)	>128
CC(C)C[C@@H](NC(=O)[C@H](N)CCCCN)C(=O)N[C@H](CCCCN)C(=O)N[C@H](Cc1c[nH]c2ccccc12)C(=O)N[C@H](Cc1ccccc1)C(=O)N[C@H](Cc1c[nH]c2ccccc12)C(=O)N[C@H](CC(C)C)C(=O)N[C@H](Cc1ccccc1)C(=O)N[C@H](CCCCN)C(=O)N[C@H](CCCCN)C(=O)N[C@H](CCCNC(=N)N)C(=O)O [Chain311D] (H-[dK][dL][dK][dW][dF][dW][dL][dF][dK][dK][dR]-OH)	>128
CC(C)C[C@@H](NC(=O)[C@H](N)CCCNC(=N)N)C(=O)N[C@H](CCCCN)C(=O)N[C@H](Cc1c[nH]c2ccccc12)C(=O)N[C@H](Cc1ccccc1)C(=O)N[C@H](Cc1c[nH]c2ccccc12)C(=O)N[C@H](CC(C)C)C(=O)N[C@H](Cc1ccccc1)C(=O)N[C@H](CCCNC(=N)N)C(=O)N[C@H](CCCCN)C(=O)N[C@H](CCCNC(=N)N)C(=O)O [Chain307D] (H-[dR][dL][dK][dW][dF][dW][dL][dF][dR][dK][dR]-OH)	>128
CC[C@@H](C)[C@@H](NC(=O)[C@@H](CC(C)C)NC(=O)[C@@H](CCCNC(=N)N)NC(=O)[C@H](N)CCCNC(=N)N)C(=O)N[C@H](Cc1c[nH]c2ccccc12)C(=O)N[C@H](CCCNC(=N)N)C(=O)N[C@H](CCCNC(=N)N)C(=O)N[C@H](Cc1ccccc1)C(=O)N[C@H](CCCCN)C(=O)N[C@H](Cc1c[nH]c2ccccc12)C(=O)N[C@H](CC(C)C)C(=O)N[C@H](CCCNC(=N)N)C(=O)O [Chain204D] (H-[dR][dR][dL][dI][dW][dR][dR][dF][dK][dW][dL][dR]-OH)	>128

Problem: // output Minimum inhibitory concentration; input CC[C@@H](C)[C@@H](N)C(=O)N[C@H](Cc1c[nH]c2ccccc12)C(=O)N[C@H](CCCCN)C(=O)N[C@H](CCCNC(=N)N)C(=O)N[C@H](Cc1ccccc1)C(=O)N[C@H](CCCNC(=N)N)C(=O)N[C@H](CC(C)C)C(=O)N[C@H](Cc1ccccc1)C(=O)N[C@H](CCCCN)C(=O)N[C@H](CCCCN)C(=O)N[C@H](Cc1c[nH]c2ccccc12)C(=O)O [Chain304D] (H-[dI][dW][dK][dR][dF][dR][dL][dF][dK][dK][dW]-OH) ; system clinical strains of Serratia marcescens
Result: >128

Problem: // fetch Minimum inhibitory concentration; item: CC(C)C[C@@H](NC(=O)[C@H](N)CCCNC(=N)N)C(=O)N[C@H](CCCCN)C(=O)N[C@H](Cc1c[nH]c2ccccc12)C(=O)N[C@H](Cc1ccccc1)C(=O)N[C@H](CC(C)C)C(=O)N[C@H](CC(C)C)C(=O)N[C@H](Cc1ccccc1)C(=O)N[C@H](CCCNC(=N)N)C(=O)N[C@H](CCCCN)C(=O)N[C@H](CCCNC(=N)N)C(=O)O [Chain308D] (H-[dR][dL][dK][dW][dF][dL][dL][dF][dR][dK][dR]-OH) ; system: clinical strains of Serratia marcescens
Result: 128

###

# System: clinical strains of E. coli
# test_summary: MIC, microdilution, clinical strains
# Format: cell-based
# protocol_conditions: Escherichia coli strain 5; microdilution, Muller Hinton broth-cation adjusted, 0.02% BSA, 0.2% acetic acid
Where a SMILES comes first, the peptide text is derived from it. [ ]: non-standard residue; d: D form.
Minimum inhibitory concentration values by entry
Enter a number only.

Consider the worked cases shown below.
compound	test_system	readout_type	value_measured
CC[C@@H](C)[C@@H](N)C(=O)N[C@H](Cc1c[nH]c2ccccc12)C(=O)N[C@H](CCCCN)C(=O)N[C@H](CCCNC(=N)N)C(=O)N[C@H](Cc1ccccc1)C(=O)N[C@H](CCCNC(=N)N)C(=O)N[C@H](CC(C)C)C(=O)N[C@H](Cc1ccccc1)C(=O)N[C@H](CCCCN)C(=O)N[C@H](CCCCN)C(=O)N[C@H](Cc1c[nH]c2ccccc12)C(=O)O [Chain304D] (H-[dI][dW][dK][dR][dF][dR][dL][dF][dK][dK][dW]-OH)	clinical strains of E. coli	Minimum inhibitory concentration	32
CC(C)C[C@@H](NC(=O)[C@H](N)CCCNC(=N)N)C(=O)N[C@H](CCCCN)C(=O)N[C@H](CCCNC(=N)N)C(=O)N[C@H](Cc1c[nH]c2ccccc12)C(=O)N[C@H](CCCNC(=N)N)C(=O)N[C@H](CC(C)C)C(=O)N[C@H](Cc1ccccc1)C(=O)N[C@H](CCCNC(=N)N)C(=O)N[C@H](CCCCN)C(=O)N[C@H](CCCNC(=N)N)C(=O)O [Chain306D] (H-[dR][dL][dK][dR][dW][dR][dL][dF][dR][dK][dR]-OH)	clinical strains of E. coli	Minimum inhibitory concentration	2

From here, focus on the item given below.
Problem: Report measured Minimum inhibitory concentration; entry is CC[C@@H](C)[C@@H](NC(=O)[C@@H](CC(C)C)NC(=O)[C@@H](CCCNC(=N)N)NC(=O)[C@H](N)CCCNC(=N)N)C(=O)N[C@H](Cc1c[nH]c2ccccc12)C(=O)N[C@H](CCCNC(=N)N)C(=O)N[C@H](CCCNC(=N)N)C(=O)N[C@H](Cc1ccccc1)C(=O)N[C@H](CCCCN)C(=O)N[C@H](Cc1c[nH]c2ccccc12)C(=O)N[C@H](CC(C)C)C(=O)N[C@H](CCCNC(=N)N)C(=O)O [Chain204D] (H-[dR][dR][dL][dI][dW][dR][dR][dF][dK][dW][dL][dR]-OH)
Result: 1
